Target: motilin receptor (rabbit antral smooth muscle membranes) (Oryctolagus cuniculus)
Construct: from tissue; host or cells: rabbit antral smooth muscle membranes
Sequence (G1T803 1-400): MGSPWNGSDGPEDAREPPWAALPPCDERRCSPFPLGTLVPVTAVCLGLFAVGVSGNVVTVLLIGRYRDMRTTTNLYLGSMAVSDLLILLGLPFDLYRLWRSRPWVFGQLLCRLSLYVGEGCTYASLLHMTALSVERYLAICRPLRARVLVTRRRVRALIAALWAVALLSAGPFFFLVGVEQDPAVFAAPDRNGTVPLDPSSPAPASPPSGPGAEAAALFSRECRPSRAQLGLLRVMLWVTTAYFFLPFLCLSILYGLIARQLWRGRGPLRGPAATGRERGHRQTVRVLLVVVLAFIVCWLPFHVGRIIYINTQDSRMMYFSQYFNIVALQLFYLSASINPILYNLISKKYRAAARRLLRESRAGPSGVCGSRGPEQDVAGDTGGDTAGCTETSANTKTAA
Assay: Motilin receptor binding affinity: displacement of [125I-Tyr7,Nle13]motilin(porcine)
Conditions: negative logarithm of concentration displacing 50% of [125I-Tyr7,Nle13]motilin(porcine) from rabbit antral smooth muscle membranes; read-out: pIC50 (converted)
Counter-ions that a name gives are not always drawn. Where a SMILES comes first, the peptide text is derived from it. [ ]: non-standard residue; d: D form. NMeF = CN[C@@H](Cc1ccccc1)C(=O)O
Quantity Kind: IC50 (nM)
Please state the figure in nM; there is no need to write the unit.

Note to self: IC50 of CC[C@H](C)[C@H](NC(=O)[C@H](Cc1ccccc1)NC(=O)[C@@H](NC(=O)[C@H](Cc1ccccc1)NC)C(C)C)C(=O)N[C@@H](Cc1ccccc1)C(=O)N[C@H](C(=O)N[C@@H](Cc1ccc(O)cc1)C(=O)NCC(=O)N[C@@H](CCC(=O)O)C(=O)N[C@@H](CC(C)C)C(=O)N[C@@H](CCC(N)=O)C(=O)N[C@@H](CCCNC(=N)N)C(=O)N[C@@H](CC(C)C)C(=O)N[C@@H](CCC(N)=O)C(=O)O)[C@@H](C)O [[N--MePhe^1, Phe^3, Leu^3]pMOT(1-14), Bis-trifluoroacetate Salt] (H-[NMeF]VFIFTYGELQRLQ-OH) with motilin receptor (rabbit antral smooth muscle membranes) (Oryctolagus cuniculus) was 10.7

Note to self: IC50 of CC[C@H](C)[C@H](NC(=O)[C@H](Cc1ccccc1)NC(=O)[C@@H](NC(=O)[C@@H](N)Cc1ccccc1)C(C)C)C(=O)N[C@@H](Cc1ccccc1)C(=O)N[C@H](C(=O)N[C@@H](Cc1ccc(O)cc1)C(=O)N[C@H](C)C(=O)N[C@@H](CCC(=O)O)C(=O)N[C@@H](CC(C)C)C(=O)N[C@@H](CCC(N)=O)C(=O)N[C@@H](CCCNC(=N)N)C(=O)N[C@@H](CC(C)C)C(=O)N[C@@H](CCC(N)=O)C(=O)O)[C@@H](C)O [[Phe^3, D-Ala^8, Leu^13]pMOT(1-14)] (H-FVFIFTY[dA]ELQRLQ-OH) with motilin receptor (rabbit antral smooth muscle membranes) (Oryctolagus cuniculus) was 49

Note to self: IC50 of CC[C@H](C)[C@H](NC(=O)[C@H](Cc1ccccc1)NC(=O)[C@@H](NC(=O)[C@@H](N)Cc1ccccc1)C(C)C)C(=O)N[C@@H](Cc1ccccc1)C(=O)N[C@H](C(=O)N[C@@H](Cc1ccc(O)cc1)C(=O)NCC(=O)N[C@@H](CCC(=O)O)C(=O)N[C@@H](CC(C)C)C(=O)N[C@@H](CCC(N)=O)C(=O)N[C@@H](CCCNC(=N)N)C(=O)N[C@@H](CC(C)C)C(=O)N[C@H](CCC(N)=O)C(N)=O)[C@@H](C)O (H-FVFIFTYGELQRL[dQ]-NH2) with motilin receptor (rabbit antral smooth muscle membranes) (Oryctolagus cuniculus) was 0.977

Note to self: IC50 of CC[C@H](C)[C@H](NC(=O)[C@@H](Cc1ccccc1)NC(=O)[C@@H](NC(=O)[C@@H](N)Cc1ccccc1)C(C)C)C(=O)N[C@@H](Cc1ccccc1)C(=O)N[C@H](C(=O)N[C@@H](Cc1ccc(O)cc1)C(=O)NCC(=O)N[C@@H](CCC(=O)O)C(=O)N[C@@H](CC(C)C)C(=O)N[C@@H](CCC(N)=O)C(=O)N[C@@H](CCCNC(=N)N)C(=O)N[C@@H](CC(C)C)C(=O)N[C@@H](CCC(N)=O)C(=O)O)[C@@H](C)O [[D-Phe^3, Leu^13]pMOT(1-14)] (H-FV[dF]IFTYGELQRLQ-OH) with motilin receptor (rabbit antral smooth muscle membranes) (Oryctolagus cuniculus) was 8.13
